Tested on: SKOV3
assay_notes: Primary qHTS to identify gynecologic anti-cancer compounds using libraries of approved drugs and bioactive compounds (AID 1345084); also: nearly all actives have a fitted effect of over 55% in size; also: potency is read from the fitted curve at half-maximal effect
setup_conditions: Gynecologic cancer cell panel viability, ATPlite luminescence, 48 h; series mostly up to 57.5 µM
Results filed as inconclusive are left out. The source made the active and inactive calls. Calls follow the shape of the dose curve; as a rule, active = well fitted cell-killing curve with a large enough effect; inconclusive = small, poorly fitted or top-dose-only effect, or effect the other way; inactive = flat fitted curve, though single readings scatter.

compound: CCOC(=O)c1cc(C#N)c(N2CCC(C(=O)NS(=O)(=O)Cc3ccccc3)CC2)nc1C
tested_system: SKOV3
Potency: inactive
--
compound: CC1=C(C(=O)OCc2ccccc2)C(c2ccc(-c3ccccc3)cc2)NC(=O)N1CCCCCC(=O)O (stereo not given)
tested_system: SKOV3
Potency: inactive
--
compound: CC1=CC(=O)CC(C)(C)[C@@]1(O)CC[C@@H](C)O[C@@H]1O[C@H](CO)[C@@H](O)[C@H](O)[C@H]1O
tested_system: SKOV3
Potency: inactive
--
compound: COc1cc2c3c(cc4ccccc4c3c1O)NC2=O
tested_system: SKOV3
Potency: inactive
--
compound: Cc1nc(NC(=O)N2CCCC2C(N)=O)sc1-c1csc(C(C)(C)C)n1 (stereo not given)
tested_system: SKOV3
Potency: 3.16 µM (active)
